experimentalDetails: solvent given as SMILES
setupConditions: in C1CCOC1
# key: entry, value: fluorescence lifetime
measuredQuantity: fluorescence lifetime (ns)

* CCC1(CC)c2cc(B(c3c(C)cc(C)cc3C)c3c(C)cc(C)cc3C)ccc2-c2c1c1c(c3c2C(CC)(CC)c2cc(B(c4c(C)cc(C)cc4C)c4c(C)cc(C)cc4C)ccc2-3)C(CC)(CC)c2cc(B(c3c(C)cc(C)cc3C)c3c(C)cc(C)cc3C)ccc2-1 | 4.4
* CCC1(CC)c2cc(N(c3ccccc3)c3ccccc3)ccc2-c2c1c1c(c3c2C(CC)(CC)c2cc(N(c4ccccc4)c4ccccc4)ccc2-3)C(CC)(CC)c2cc(N(c3ccccc3)c3ccccc3)ccc2-1 | 2.1
* COc1ccc(C(=Cc2ccc(/C=C(\C#N)c3ccccc3)cc2)c2ccc(OC)cc2)cc1 | 0.5
* O=C1c2ccccc2-c2ccc(N3CCN(c4ccccc4)CC3)c3cccc1c23 | 2.59
* O=Cc1ccc2ccc3cccc4ccc1c2c34 | 127
* CCCCC1=Cc2c3ccc4cccc5ccc(c6cc(-c7ccccc7)n(c26)P1(=O)c1ccccc1)c3c45 (configuration not stated) | 1.7
* c1ccc(C2=C(c3ccccc3)[Si](c3ccccc3)(c3ccccc3)c3ccccc32)cc1 | 1.98
* COc1cc2c(cc1-c1ccc([N+](=O)[O-])cc1)Cc1c3c(c4c(c1-2)-c1cc(OC)c(-c2ccc([N+](=O)[O-])cc2)cc1C4)C(=O)N(CCC(C)C)C3=O | 1.43
* COC(=O)c1ccc(C#Cc2ccc(N(C)C)cc2)cc1 | 2.43
* O=C(O)c1c2ccccc2c(C(=O)O)c2ccccc12 | 8.8
* CN(C)c1ccc(C2=Nc3scc(-c4ccc([N+](=O)[O-])cc4)[n+]3[B-](F)(F)O2)cc1 | 1.64
* Cc1ccc(C2=C3C=CC(/C=C/c4ccccc4)=[N+]3[B-](F)(F)n3c(/C=C/c4ccccc4)ccc32)cc1 | 4.09
* CCCCCCCCC1(CCCCCCCC)c2ccccc2-c2ccc(N(c3ccc(-n4c5ccccc5c5ccccc54)cc3)c3ccc4c(c3)C(CCCCCCCC)(CCCCCCCC)c3ccccc3-4)cc21 | 1.8
* c1ccc(-c2cc(-c3ccc4ccc5cccc6ccc3c4c56)ccn2)nc1 | 6.5
* CN(C)c1ccc(-c2nc3c(c4c2-c2ccccc2CC4)-c2ccccc2CC3)cc1 | 0.91
* CCOC(=O)C(C(=O)OCC)C1=[N+]2C(=C(c3ccc(C)cc3)c3ccc(Cl)n3[B-]2(F)F)C=C1 | 2.5
* CCn1c2ccccc2c2cc(-c3cc(-c4ccc5c(c4)c4ccccc4n5CC)nc(-c4ccc(OC)cc4)n3)ccc21 | 1.63
* CN(C)c1ccc(C#Cc2ccc(C#Cc3ccc(C#Cc4ccccc4C#N)cc3C#N)cc2C#N)cc1 | 1.7
* CCCCn1c2ccccc2c2c1c1c3ccccc3n(CCCC)c1c1c3ccccc3n(CCCC)c21 | 6
* F[B-]1(F)n2c(/C=C/c3ccc(C(=C(c4ccccc4)c4ccccc4)c4ccccc4)cc3)ccc2C(c2ccccc2)=C2C=CC(/C=C/c3ccc(C(=C(c4ccccc4)c4ccccc4)c4ccccc4)cc3)=[N+]21 | 3.98
* CCOC(=O)c1csc2[n+]1[B-](F)(F)OC(c1ccc(N(C)C)cc1)=N2 | 2.1
* CC1=N/C(=C\c2cc(N(C)C)ccc2C#N)C(=O)N1C | 14.8
* CCc1ccc(-c2nc(-c3ccc(-n4c5ccccc5c5ccccc54)cc3)cc(-c3ccc(-n4c5ccccc5c5ccccc54)cc3)n2)cc1 | 3.72
* CCC(=O)c1ccc2cc(N(C)C)ccc2c1 | 3.58
* CCOC(=O)C1=CN(c2ccccc2)C=CC1c1ccccc1 (configuration not stated) | 7.14
* CCC(CC)COC1=CC2=C3c4cc(OCC(CC)CC)c(-c5ccccc5)n4[B-](F)(F)[n+]4nnn(c43)[B-](F)(F)[N+]2=C1c1ccccc1 | 1.01
* CCn1c2ccccc2c2cc(C#Cc3cc(C#Cc4ccc5c(c4)c4ccccc4n5CC)nc(S(C)(=O)=O)n3)ccc21 | 4.22
* CN(C)c1ccc(/C=C2\CC/C(=C\c3ccc(N(C)C)cc3)C2=O)cc1 | 0.6
* C[Si](C)(C)c1ccc(-c2ccc(-c3ccc(-c4ccc(-c5ccc([Si](C)(C)C)cc5)cc4)c4nsnc34)cc2)cc1 | 5.4
* CCn1c2ccccc2c2cc(-c3cc(-c4ccc5c(c4)c4ccccc4n5CC)ncn3)ccc21 | 1.86
* O=C(O)COc1ccc2[nH]c3c(c2c1)CCCC3=O | 0.319
* COc1cc2c(cc1-c1ccc(C(F)(F)F)cc1)Cc1c3c(c4c(c1-2)-c1cc(OC)c(-c2ccc(C(F)(F)F)cc2)cc1C4)C(=O)N(CCC(C)C)C3=O | 2.43

Data provenance: the Deep4Chem optical property database
